Provenance of the data: ChEMBL document CHEMBL1126888

# Species: Rattus norvegicus
# ASSAY NOTES: Inhibitory potency against rat platelet membrane permeability at pH 7.35
# Type: functional
pIC50: −log10 of the molar value.
ASSAY READOUT: pIC50

// solved cases for pIC50 follow
1) CCCCC(NC(=O)C(CC(C)C)NC(=O)OCc1ccccc1)C(=O)C(=O)OCC (stereo not drawn)
3.82
2) CCCNC(=O)C(=O)C(Cc1ccccc1)NC(=O)C(CC(C)C)NC(=O)OCc1ccccc1 (stereo not drawn)
4.51
3) CCNC(=O)C(=O)C(Cc1ccccc1)NC(=O)C(CC(C)C)NC(=O)OCc1ccccc1 (stereo not drawn)
4.66
4) CCC(NC(=O)C(CC(C)C)NC(=O)OCc1ccccc1)C(=O)C(=O)NCC1CCCCC1 (stereo not drawn)
4.18
5) CCCNC(=O)C(=O)C(CC)NC(=O)C(CC(C)C)NC(=O)OCc1ccccc1 (stereo not drawn)
4.15
6) CCOC(=O)C(=O)[C@H](CC)NC(=O)[C@H](CC(C)C)NC(=O)[C@H](CC(C)C)NS(=O)(=O)c1ccc2ccccc2c1
4.00

[P] CCCC(NC(=O)C(CC(C)C)NC(=O)OCc1ccccc1)C(=O)C(=O)OCC (stereo not drawn)
[Q] CC(C)CNC(=O)C(=O)C(Cc1ccccc1)NC(=O)C(CC(C)C)NC(=O)OCc1ccccc1 (stereo not drawn)
Between P and Q , whose measured pIC50 reads higher? Please indicate the selected item by its label. Q

----------
# STUDY SYSTEM: Calpain 1 (Homo sapiens)
# Sequence (P04632 whole entry): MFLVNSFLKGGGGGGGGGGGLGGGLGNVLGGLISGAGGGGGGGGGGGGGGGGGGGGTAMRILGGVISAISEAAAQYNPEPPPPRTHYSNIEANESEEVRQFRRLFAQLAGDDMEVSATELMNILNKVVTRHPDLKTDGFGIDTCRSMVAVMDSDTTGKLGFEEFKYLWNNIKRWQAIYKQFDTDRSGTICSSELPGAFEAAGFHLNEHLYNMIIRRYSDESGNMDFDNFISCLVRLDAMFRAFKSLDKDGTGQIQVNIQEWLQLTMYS
# Sequence (P07384 whole entry): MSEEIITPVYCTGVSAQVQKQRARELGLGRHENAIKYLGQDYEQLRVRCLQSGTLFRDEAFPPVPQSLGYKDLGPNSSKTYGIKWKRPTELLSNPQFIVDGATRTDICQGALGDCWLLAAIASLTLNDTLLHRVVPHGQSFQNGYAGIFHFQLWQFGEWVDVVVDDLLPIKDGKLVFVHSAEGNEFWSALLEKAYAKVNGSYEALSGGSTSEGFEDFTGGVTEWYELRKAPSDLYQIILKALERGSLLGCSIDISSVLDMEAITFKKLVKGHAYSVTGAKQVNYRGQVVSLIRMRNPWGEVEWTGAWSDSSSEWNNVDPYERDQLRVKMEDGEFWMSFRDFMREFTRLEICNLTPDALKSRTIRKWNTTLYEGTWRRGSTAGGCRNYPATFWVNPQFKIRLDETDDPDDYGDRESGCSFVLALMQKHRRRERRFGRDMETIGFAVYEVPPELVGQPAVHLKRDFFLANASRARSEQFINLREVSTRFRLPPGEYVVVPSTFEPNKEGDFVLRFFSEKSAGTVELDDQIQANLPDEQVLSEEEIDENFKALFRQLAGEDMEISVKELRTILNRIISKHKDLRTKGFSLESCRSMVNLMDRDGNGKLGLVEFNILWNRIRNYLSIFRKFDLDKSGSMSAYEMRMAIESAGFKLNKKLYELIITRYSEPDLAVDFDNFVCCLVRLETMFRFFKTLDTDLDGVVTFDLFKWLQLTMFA
# ASSAY NOTES: Inhibitory activity of alpha-keto esters towards calpain 1 at pH 8.0.
ASSAY READOUT: Ki (nM)

[P] CCOC(=O)C(=O)C(CC)NC(=O)C(CC(C)C)NC(=O)C(c1ccccc1)c1ccccc1 (centres undefined)
[Q] CCC(NC(=O)C(CC(C)C)NC(=O)OCc1ccccc1)C(=O)C(=O)NCC(C)C (centres undefined)
[R] CCC(NC(=O)C(CC(C)C)NC(=O)OCc1ccccc1)C(=O)C(=O)NCC1CCCCC1 (centres undefined)
[S] CCC(NC(=O)C(CC(C)C)NC(=O)OCc1ccccc1)C(=O)C(=O)NCc1ccccc1 (centres undefined)
[T] CCOC(=O)C(=O)C(CC)NC(=O)C(CC(C)C)NC(=O)CCc1ccccc1 (centres undefined)
Endpoint returns the given compounds ordered by ascending Ki. Rank the items, then write their labels in that order. P, S, R, Q, T

----------
# Organism: Rattus norvegicus
# ASSAY NOTES: Inhibitory potency against rat platelet membrane permeability at pH 7.35
# Type: functional
pIC50: −log10 of the molar value.
ASSAY READOUT: pIC50

// solved cases for pIC50 follow
1) CCCCNC(=O)C(=O)C(Cc1ccccc1)NC(=O)C(CC(C)C)NC(=O)OCc1ccccc1 (stereo unspecified)
4.42
2) CCOC(=O)C(=O)[C@H](CC)NC(=O)[C@H](CC(C)C)NC(=O)[C@H](CC(C)C)NS(=O)(=O)c1ccc(C)cc1
4.52
3) CCC(NC(=O)C(CC(C)C)NC(=O)OCc1ccccc1)C(=O)C(N)=O (stereo unspecified)
4.05

[I] CCC(NC(=O)C(CC(C)C)NC(=O)OCc1ccccc1)C(=O)C(=O)NCC(C)C (stereo unspecified)
[II] CCC(NC(=O)C(CC(C)C)NC(=O)OCc1ccccc1)C(=O)C(=O)NCc1ccccc1 (stereo unspecified)
[III] CCC(NC(=O)C(CC(C)C)NC(=O)OCc1ccccc1)C(=O)C(=O)NCCCc1ccccc1 (stereo unspecified)
Returns the items ordered by pIC50, from maximum to minimum. Rank the items, then write their labels in that order. I, II, III
(I: 4.55, II: 4.30, III: 4.00)

[a] CCCC(NC(=O)C(CC(C)C)NC(=O)OCc1ccccc1)C(=O)C(=O)NCC (stereo unspecified)
[b] CCOC(=O)C(=O)C(CC)NC(=O)C(CC(C)C)NC(=O)C(CC)Oc1ccccc1 (stereo unspecified)
Between a and b , whose measured pIC50 reads higher? Please indicate the selected item by its label. b
(b: 4.66, a: 4.40)
